STUDY_TARGET: unrelated control antibody
ASSAY: phage ELISA, 10^10 phagemid, wells coated with control mAb
Positions of bridges follow the written chain, without caps; N, C: chain ends. No end group written: not given here.
I'd appreciate it if you could supply ELISA (absorbance units) (absorbance units) values for the items below.

Take a look at these entries with their results.
BINDER	ASSAY_VALUE
CSFFYSLCYCWCS (disulfide (positions not given here); also: disulfide pairing among 4 Cys not given here, displayed on phagemid) [phagemid CS1-31p, displayed peptide …]	0.125
CSGLYPWDYFMCS (disulfide 1-12 (inferred); also: displayed on phagemid) [phagemid CS1-29p, displayed peptide …]	0.148
CSFRYLWDQDRCS (disulfide 1-12 (inferred); also: displayed on phagemid) [phagemid CS1-6p, displayed peptide …]	0.203
CSFRYQWDMFRCS (disulfide 1-12 (inferred); also: displayed on phagemid) [phagemid CS1-11p, displayed peptide …]	0.242

Fill in ELISA (absorbance units) (absorbance units) for each of the 2 binders listed.
1. CSGLYPWDMFRCS (disulfide 1-12 (inferred); also: displayed on phagemid) [phagemid CS1-9p, displayed peptide …]
2. CSLFYLWDQDRCS (disulfide 1-12 (inferred); also: displayed on phagemid) [phagemid CS1-2p, displayed peptide …]

0.213
0.228
